TARGET_DESC: Protein deacetylase HDAC6 (Homo sapiens) (UniProt Q9UBN7)
Sequence (whole entry): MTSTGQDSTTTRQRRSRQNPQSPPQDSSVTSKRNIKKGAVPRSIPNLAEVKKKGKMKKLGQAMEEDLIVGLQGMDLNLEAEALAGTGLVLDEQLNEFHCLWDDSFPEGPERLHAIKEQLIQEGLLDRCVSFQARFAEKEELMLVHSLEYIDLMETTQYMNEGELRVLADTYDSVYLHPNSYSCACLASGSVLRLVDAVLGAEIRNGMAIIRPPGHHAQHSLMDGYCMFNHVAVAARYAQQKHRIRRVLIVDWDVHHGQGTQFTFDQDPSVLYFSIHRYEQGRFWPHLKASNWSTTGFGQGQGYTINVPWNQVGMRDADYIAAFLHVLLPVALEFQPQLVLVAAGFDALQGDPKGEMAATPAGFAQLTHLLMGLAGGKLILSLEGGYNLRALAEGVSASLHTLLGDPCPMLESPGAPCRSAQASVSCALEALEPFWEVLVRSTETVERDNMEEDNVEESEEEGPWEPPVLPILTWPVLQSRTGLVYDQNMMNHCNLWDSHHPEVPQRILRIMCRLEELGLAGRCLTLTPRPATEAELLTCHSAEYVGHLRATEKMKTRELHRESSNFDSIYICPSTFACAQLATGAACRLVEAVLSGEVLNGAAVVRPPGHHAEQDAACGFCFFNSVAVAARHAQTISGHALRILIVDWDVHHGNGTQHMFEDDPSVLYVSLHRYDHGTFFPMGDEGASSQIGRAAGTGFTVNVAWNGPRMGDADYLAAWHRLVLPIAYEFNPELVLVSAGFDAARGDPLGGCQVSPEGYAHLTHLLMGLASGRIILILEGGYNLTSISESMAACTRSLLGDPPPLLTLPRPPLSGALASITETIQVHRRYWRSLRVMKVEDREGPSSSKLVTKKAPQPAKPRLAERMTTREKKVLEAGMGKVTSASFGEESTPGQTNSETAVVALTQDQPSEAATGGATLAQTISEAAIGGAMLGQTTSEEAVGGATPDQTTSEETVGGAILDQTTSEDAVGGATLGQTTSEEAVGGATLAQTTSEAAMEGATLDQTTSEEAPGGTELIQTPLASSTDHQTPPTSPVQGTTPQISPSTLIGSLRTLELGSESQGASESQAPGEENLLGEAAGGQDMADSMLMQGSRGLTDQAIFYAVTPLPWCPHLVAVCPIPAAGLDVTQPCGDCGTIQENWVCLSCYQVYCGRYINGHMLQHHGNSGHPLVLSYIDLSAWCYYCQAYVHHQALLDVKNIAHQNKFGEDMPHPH
EXPERIMENTAL_PARAMETERS: at 10 µM
MEASURED_METRIC: inhibition (%)
All answers are understood in %, so give the number only.

Here's what some known entries look like.
O=C1c2ccccc2-n2c1nc1ccccc1c2=O ... 82.7
COc1cccc(-c2cc(=O)c3ccccc3o2)c1N ... 97.7
COc1cccc2c1C(=O)c1c(O)c3c(c(O)c1C2=O)C[C@@](O)(C(=O)CO)C[C@@H]3O[C@H]1C[C@H](N)[C@H](O[C@@H]2CCCCO2)[C@H](C)O1 ... 94.5

Please find the next molecule below.
Give reported inhibition value for `Cc1ccc(NCCCc2ccccc2)c(N)c1`
100

----------
TARGET_DESC: Protein deacetylase HDAC6 (Homo sapiens)
Sequence (whole entry): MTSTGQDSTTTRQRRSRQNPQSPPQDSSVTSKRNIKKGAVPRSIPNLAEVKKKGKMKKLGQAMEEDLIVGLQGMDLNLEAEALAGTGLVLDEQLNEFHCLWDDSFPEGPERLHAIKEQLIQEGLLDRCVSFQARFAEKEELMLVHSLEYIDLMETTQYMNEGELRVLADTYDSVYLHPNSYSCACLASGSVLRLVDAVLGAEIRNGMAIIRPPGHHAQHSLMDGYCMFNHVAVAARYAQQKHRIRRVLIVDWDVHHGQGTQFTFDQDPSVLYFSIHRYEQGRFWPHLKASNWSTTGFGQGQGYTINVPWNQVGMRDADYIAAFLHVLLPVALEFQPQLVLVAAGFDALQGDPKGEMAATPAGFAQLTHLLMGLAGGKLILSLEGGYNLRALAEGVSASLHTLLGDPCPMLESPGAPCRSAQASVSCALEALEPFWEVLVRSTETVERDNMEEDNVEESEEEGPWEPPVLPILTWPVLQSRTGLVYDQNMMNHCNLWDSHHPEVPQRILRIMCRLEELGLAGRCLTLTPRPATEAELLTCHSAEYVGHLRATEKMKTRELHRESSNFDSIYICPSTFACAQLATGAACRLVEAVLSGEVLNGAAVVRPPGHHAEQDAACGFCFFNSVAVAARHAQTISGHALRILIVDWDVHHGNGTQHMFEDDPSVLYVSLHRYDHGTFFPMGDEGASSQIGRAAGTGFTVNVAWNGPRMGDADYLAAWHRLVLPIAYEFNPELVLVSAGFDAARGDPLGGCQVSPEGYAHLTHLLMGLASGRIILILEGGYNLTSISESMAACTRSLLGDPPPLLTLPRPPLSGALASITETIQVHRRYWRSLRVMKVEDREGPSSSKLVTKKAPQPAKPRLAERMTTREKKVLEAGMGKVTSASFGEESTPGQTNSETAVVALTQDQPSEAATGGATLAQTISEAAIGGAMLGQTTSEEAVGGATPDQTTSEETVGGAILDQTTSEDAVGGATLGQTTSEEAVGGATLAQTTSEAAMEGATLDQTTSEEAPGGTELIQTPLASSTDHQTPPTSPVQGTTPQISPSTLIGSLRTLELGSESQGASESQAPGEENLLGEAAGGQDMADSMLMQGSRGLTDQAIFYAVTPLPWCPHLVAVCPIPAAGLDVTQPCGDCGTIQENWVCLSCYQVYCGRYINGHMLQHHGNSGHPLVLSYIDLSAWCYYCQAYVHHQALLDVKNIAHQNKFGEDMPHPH
EXPERIMENTAL_PARAMETERS: at 10 µM
MEASURED_METRIC: inhibition (%)
All answers are understood in %, so give the number only.

Give reported inhibition value for `O=C(O)c1cc([N+](=O)[O-])ccc1NCCCc1ccccc1`
82.8

Give reported inhibition value for `C[C@H](NCc1ccc(OCc2cccc(F)c2)cc1)C(N)=O`
84.6

Give reported inhibition value for `Oc1cc(O)cc(/C=C/c2ccc(O)c(O)c2)c1`
105

Give reported inhibition value for `Cc1nc(-c2ccc(OCC(C)C)c(C#N)c2)sc1C(=O)O`
106

Give reported inhibition value for CC(C)(C)C1CCc2c(sc(NC(=O)c3ccco3)c2C(=O)O)C1 (configuration not stated)
73.7
